Quick reference: IC50 of the listed items.
Biological target: human RIP1 (Homo sapiens, UniProt Q13546)
Construct: U937 and L929 cells were obtained from the American Type Culture Collection
Sequence (Q13546 1-671): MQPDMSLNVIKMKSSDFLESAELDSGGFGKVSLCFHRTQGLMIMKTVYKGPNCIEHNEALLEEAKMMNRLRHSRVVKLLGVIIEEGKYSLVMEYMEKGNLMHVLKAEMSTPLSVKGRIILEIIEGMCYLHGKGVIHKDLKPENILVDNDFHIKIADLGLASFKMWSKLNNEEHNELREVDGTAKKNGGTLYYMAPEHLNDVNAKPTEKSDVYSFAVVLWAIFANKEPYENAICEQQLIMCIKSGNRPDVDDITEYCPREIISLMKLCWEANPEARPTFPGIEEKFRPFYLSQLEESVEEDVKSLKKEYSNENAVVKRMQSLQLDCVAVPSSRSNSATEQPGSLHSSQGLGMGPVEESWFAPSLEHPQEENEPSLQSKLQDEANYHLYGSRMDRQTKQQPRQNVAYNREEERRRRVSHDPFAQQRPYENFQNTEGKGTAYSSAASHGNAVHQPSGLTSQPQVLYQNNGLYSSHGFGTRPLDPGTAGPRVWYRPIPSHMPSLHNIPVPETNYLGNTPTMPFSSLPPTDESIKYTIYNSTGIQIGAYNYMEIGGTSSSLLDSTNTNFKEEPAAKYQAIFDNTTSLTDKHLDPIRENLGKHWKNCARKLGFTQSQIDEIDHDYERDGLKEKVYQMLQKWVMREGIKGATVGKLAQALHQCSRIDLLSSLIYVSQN
Experiment: U937 cell necroptosis assay (TNFa + zVAD, CellTiter-Glo)
Conditions: U937 Zvad TNF CTG Recovery, U937 cells, TNFa 2 ng/mL + zVAD-fmk, 18 hours
Put your answer as a value accompanied by its unit after it.

// below: answered compounds
[2H]C([2H])([2H])N1C(=O)C(NC(=O)c2n[nH]c(Cc3ccccc3)n2)CCc2ccc(N3CC4(CCOCC4)C3)cc21 (racemic) :: 7.9 nM
CN1C(=O)[C@@H](NC(=O)c2ccn(Cc3ccccc3)n2)CCc2ccc(C#CC(C)(C)C)cc21 :: 7.6 nM
O=C(NC1CCc2ccc(CN3CCN(c4ccncc4)CC3)cc2NC1=O)c1cc(Oc2ccccc2)ccn1 (racemic) :: 3890 nM
[2H]C([2H])([2H])N1C(=O)C(NC(=O)c2cc(Oc3ccccc3)ccn2)CCc2ccc(C#CC(C)(C)O)cc21 (racemic) :: 2.4 nM
CN1C(=O)C(NC(=O)c2n[nH]c(Cc3ccccc3)n2)CCc2ccc(CN3CCn4ncnc4C3)cc21 (racemic) :: 9.3 nM
CN1C(=O)C(NC(=O)c2nccc(-c3ccccc3)n2)CCc2ccc(CN3CCN(c4ccncc4)CC3)cc21 (racemic) :: 6360 nM

In: Record lookup: for human RIP1 (Homo sapiens, UniProt Q13546), what IC50 belongs to CN1C(=O)C(NC(=O)c2n[nH]c(Cc3ccccc3)n2)CCc2ccc(N3CC4(CCCCC4)C3)cc21 (racemic) ?
Out: 5.2 nM

In: Record lookup: for human RIP1 (Homo sapiens, UniProt Q13546), what IC50 belongs to CN1C(=O)C(NC(=O)c2n[nH]c(Cc3ccccc3)n2)CCc2ccc(CN3CCN(c4ccncc4)CC3)cc21 (racemic) ?
Out: 53.9 nM

In: Look up IC50 with human RIP1 (Homo sapiens, UniProt Q13546) for this compound: CN1C(=O)C(NC(=O)c2n[nH]c(Cc3ccccc3)n2)CCc2ccc(C#Cc3ccccn3)cc21 (racemic)
Out: 3.8 nM

In: Tell me reported IC50 for O=C(NC1CCc2ccc(CN3CCN(c4ccncc4)CC3)cc2NC1=O)c1n[nH]c(Cc2ccccc2)n1 (racemic) [Compound I-7] , tested with human RIP1 (Homo sapiens, UniProt Q13546).
Out: 2650 nM

In: Field: IC50 (human RIP1 (Homo sapiens, UniProt Q13546)). Entry: `CN1C(=O)[C@@H](NC(=O)n2cc(Cc3ccc(F)cc3)cn2)CCc2ccc(C#CC3(O)COC3)cc21`
Out: 0.3 nM

In: Short answer please: IC50, human RIP1 (Homo sapiens, UniProt Q13546), entry CN1C(=O)C(NC(=O)c2cc(Oc3ccccc3)ccn2)CCc2ccc(CN3CCN(c4ccncc4)CC3)cc21 (racemic)
Out: 278 nM
